The following variants are listed with their measured one-hybrid fitness for binding parS DNA values.
B1: Caulobacter ParB omega fusion; a variant is named by its letters at X, in order, B8GW30 (parent)
chain: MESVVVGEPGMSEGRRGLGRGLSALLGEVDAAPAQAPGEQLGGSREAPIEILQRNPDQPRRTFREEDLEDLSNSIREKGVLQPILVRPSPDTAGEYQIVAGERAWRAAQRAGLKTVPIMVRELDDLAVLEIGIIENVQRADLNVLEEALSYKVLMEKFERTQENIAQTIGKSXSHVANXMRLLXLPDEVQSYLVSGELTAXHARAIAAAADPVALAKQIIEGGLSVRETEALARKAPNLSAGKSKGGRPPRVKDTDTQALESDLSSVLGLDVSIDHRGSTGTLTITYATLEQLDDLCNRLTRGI

- Variants of: B1
- experiment_notes: one-hybrid fitness for binding parS DNA (scaled: cognate 1, non-cognate 0); higher = stronger binding
- test_conditions: with parS DNA site
The full ranking holds about 81,000 sequences; the median of “one-hybrid fitness for binding parS DNA” is about -0.17, and the highest 2% start at about 0.51. This excerpt belongs to a sample that is enriched for the highest values.

PHTE    ≤ 0.2
RVQG    0.999
GMPS    ≤ 0.2
RNHW    ≤ 0.2
RRYY    0.28

# input Item `RRGE` has what recorded one-hybrid fitness for binding parS DNA?
# output ≤ 0.2

# input One more variant: `RVQF`
# output 0.234

# input One more variant: `GVLC`
# output ≤ 0.2

# input One more variant: `RKKC`
# output 0.694

# input One more variant: `QHLA`
# output ≤ 0.2

# input One more variant: `RMQY`
# output 0.546

# input One more variant: `TRNA`
# output ≤ 0.2

# input One more variant: `SDSD`
# output ≤ 0.2

# input One more variant: `FIYG`
# output ≤ 0.2

# input One more variant: `ACFK`
# output ≤ 0.2

# input One more variant: `IRLE`
# output ≤ 0.2

# input One more variant: `RSDI`
# output ≤ 0.2

# input One more variant: `RNNY`
# output 0.434
